- Test Summary: MTT cytotoxicity assay, HepG2
- Assay type: cell-based, human
- Measurement Setup: human, HepG2 cells (hepatocellular carcinoma), HepG2, 100 ug/ml, 48 h
For each entry below, report its cytotoxicity at 48 h, 100 µg/ml value.
Give bare numbers, in %.

>>> result("COc1cccc2c1C(=O)c1c(O)c3c(c(O)c1C2=O)C[C@@](O)(C(=O)CO)C[C@@H]3O[C@H]1C[C@H](N)[C@H](O)[C@H](C)O1 [Doxorubicin, reference compound]")
92

Turning now to a further record.
Inquiry: For the compound shown here, COc1c(O)cc2oc(-c3ccccc3)c(OC)c(=O)c2c1O [5,7-Dihydroxy-3,6-dimethoxyflavone] , give the reported cytotoxicity at 48 h, 100 µg/ml.
Reply text: 83.5

Origin of the recorded values: paper PMC12446468
